Tested on: MCF7 breast
Test method notes: NCI tumour cell line growth inhibition, 48 h
Kindly state TGI for each of the entries shown.

Form field: reported TGI of COc1ccc(N=C(C)c2ccncc2)cc1 > 100 µM

Do the same for NC(=O)C1=NNc2ccccc2C(=O)N1c1ccccc1 please > 100 µM

Do the same for CCCCCC(O)C1C(=O)OC(C)C(O)/C=C/C=C/C=C/C=C\C=C(\C)C(O)CC(O)CC(O)CC(O)CC(O)CC(O)CC1O (stereo not drawn) please > 100 µM

###

Tested on: BT-549 breast
Test method notes: NCI tumour cell line growth inhibition, 48 h
Kindly state TGI for each of the entries shown.

Form field: reported TGI of CN1C2CC(=O)CC1[C@H](O)[C@@H]2O > 100 µM

Do the same for COc1ccc(N=C(C)c2ccncc2)cc1 please > 100 µM

Do the same for CC1CC[C@@]2(OC1)OC1C[C@H]3[C@@H]4C/C(=N\N(C)C)[C@@]5(O)CC(O)CC[C@]5(C)[C@H]4CC[C@]3(C)C1[C@@H]2C (stereo partly drawn) please > 100 µM

###

System: IGROV1 ovarian
Test method notes: NCI tumour cell line growth inhibition, 48 h
Endpoint name: TGI (µM)
Enter your answer as a number in µM; do not include the unit.

Form field: reported TGI of NC(=NCCCOc1ccc(Cl)cc1)Nc1ccc(Cl)cc1 5.83

Do the same for CC(C)(C)[Si](C)(C)OCC1OC(n2cnc3c(NC(=O)c4ccccc4)ncnc32)CC1O (centres undefined) please 91.3

###

Tested on: KM20L2 colon
Test method notes: NCI tumour cell line growth inhibition, 48 h
Endpoint name: TGI

Form field: reported TGI of CCOC(=O)c1c(C)c2c(n1C)CCc1cn[nH]c1-2 > 100 µM

Do the same for COc1ccc(/C(Cl)=C(\C=O)c2ccc([N+](=O)[O-])cc2)cc1OC please 25.5 µM

Do the same for COc1nc(SC)nc2c1cnn2C1OC(C(O)CO)C(OC)C1O (stereo not drawn) please > 100 µM

Do the same for Clc1ccc(SCCSCCCCCCCCCCSCCSc2ccc(Cl)cc2)cc1 please > 100 µM

Do the same for CC/C=C1\N=C(c2ccc(Cl)cc2)OC1=O please > 100 µM

Do the same for CC(C)c1ccccc1NC(=O)C(=O)Cc1nc2ccccc2s1 please > 100 µM

Do the same for CCCCC(C)C1CCC2(C)C=CC(=O)C(C)=C2C1O (stereo not drawn) please > 100 µM

Do the same for CCC[CH2][Sn]([CH2]CCC)([O]C(=O)c1cc(F)cc(F)c1)[O]C(=O)c1cc(F)cc(F)c1 please 3.44 µM

Do the same for COC1(OC)CC2C=C(S(=O)(=O)c3ccccc3)C1N(Cc1ccccc1)C2=O (stereo not drawn) please 97.6 µM

Do the same for Cc1ccc(NC(=O)c2cccc([N+](=O)[O-])c2O)c([N+](=O)[O-])c1 please 70.4 µM

Do the same for Cc1cc2c(=O)n(-c3ccc(F)cc3)c(C)nc2c(C(=O)O)c1C please > 100 µM

Do the same for O=C(CC1(O)C(=O)Nc2ccccc21)c1ccccc1Cl (stereo not drawn) please > 100 µM

Do the same for NC(N)=NS(=O)(=O)c1ccc(NCc2c3ccccc3nc3ccccc23)cc1 please > 100 µM

###

System: OVCAR-5 ovarian
Test method notes: NCI tumour cell line growth inhibition, 48 h
Kindly state TGI for each of the entries shown.

Kindly state the measured TGI obtained for CCCn1c(SCC)c2ccccc2c1-c1nc(F)nc(F)n1 with OVCAR-5 ovarian. > 100 µM

Do the same for COC1=CC(O)(CC(N)=O)c2ccccc2C1=O (stereo not drawn) please > 100 µM

Do the same for COc1ccc(/C(=N/NC(=O)NN)C(c2ccc(OC)cc2)C2(O)CNc3c(Cl)cc(Cl)cc32)cc1 (stereo not drawn) please > 100 µM

The measurements presented in this section are drawn from PubChem BioAssay (NCI).
